tested on: CCRIS mutagenicity, Ames/micronucleus/aberration tests; assay: CCRIS mutagenicity studies; settings: Test System: AMES SALMONELLA TYPHIMURIUM; Strain/Indicator: TA97; Metabolic Activation: NONE; Method: STANDARD PLATE
Calls of active or inactive are those of the source. How the calls were made is not given here.
Measure Name: mutagenic call

| Compound | Target Or Test System | Meas Value |
| --- | --- | --- |
| C#CCOCCn1cc[n+](C)c1/C=N/O | CCRIS mutagenicity, Ames/micronucleus/aberration tests | inactive; negative |
| CCCCC(CC)COC(=O)CCCCC(=O)O (configuration not stated) | CCRIS mutagenicity, Ames/micronucleus/aberration tests | inactive; negative |
| c1c[nH]cn1 | CCRIS mutagenicity, Ames/micronucleus/aberration tests | inactive; negative |
| O=C(O)COc1ccc2ccccc2c1 | CCRIS mutagenicity, Ames/micronucleus/aberration tests | inactive; negative |
| Cc1cccnc1 | CCRIS mutagenicity, Ames/micronucleus/aberration tests | inactive; negative |
| ClCC1C(CCl)[C@@]2(Cl)C(Cl)=C(Cl)[C@]1(Cl)C2(Cl)Cl (some centres not stated) | CCRIS mutagenicity, Ames/micronucleus/aberration tests | inactive; negative |
| CC(C)N1C(=O)c2ccccc2NS1(=O)=O | CCRIS mutagenicity, Ames/micronucleus/aberration tests | inactive; negative |
| O=C1c2c(O)ccc(O)c2C(=O)c2c(NCCNCCO)ccc(NCCNCCO)c21 | CCRIS mutagenicity, Ames/micronucleus/aberration tests | inactive; negative |
| COc1ccc(O)cc1 | CCRIS mutagenicity, Ames/micronucleus/aberration tests | inactive; negative |
| Clc1cncc(Cl)c1 | CCRIS mutagenicity, Ames/micronucleus/aberration tests | inactive; negative |
| CCNc1nc(Cl)nc(NC(C)C)n1 | CCRIS mutagenicity, Ames/micronucleus/aberration tests | inactive; negative |
| CC(C)COC(=O)CCCCC(=O)OCC(C)C | CCRIS mutagenicity, Ames/micronucleus/aberration tests | inactive; negative |
| OC(c1ccc(Cl)cc1)(c1ccc(Cl)cc1)C1CC1 | CCRIS mutagenicity, Ames/micronucleus/aberration tests | inactive; negative |
| ClCC(Cl)(Cl)Cl | CCRIS mutagenicity, Ames/micronucleus/aberration tests | inactive; negative |
| CC1COCc2cc3c(cc21)C(C)(C)C(C)C3(C)C (configuration not stated) | CCRIS mutagenicity, Ames/micronucleus/aberration tests | inactive; negative |
| O=C1NC(=O)C(c2ccccc2)(c2ccc(O)cc2)N1 (configuration not stated) | CCRIS mutagenicity, Ames/micronucleus/aberration tests | inactive; negative |
| CN(C)c1ccc(C(=N)c2ccc(N(C)C)cc2)cc1 | CCRIS mutagenicity, Ames/micronucleus/aberration tests | inactive; negative |
| CCN(C)C(=O)Oc1ccc2c(c1)C1(C)CCN(C)C1N2C (configuration not stated) | CCRIS mutagenicity, Ames/micronucleus/aberration tests | inactive; negative |
| COc1ccc(CN(CC[N+](C)(C)[O-])c2ccccn2)cc1 | CCRIS mutagenicity, Ames/micronucleus/aberration tests | inactive; negative |
| CC(O)CN(CCN(CC(C)O)CC(C)O)CC(C)O (configuration not stated) | CCRIS mutagenicity, Ames/micronucleus/aberration tests | inactive; negative |
| CC(=O)c1cc2c(cc1C)C(C)(C)C(C)C2C(C)C (configuration not stated) | CCRIS mutagenicity, Ames/micronucleus/aberration tests | inactive; negative |
